- Test system: Recombinant human IL-1β (BioLegend 579404) (human, UniProt P01584 117-269)
- Procedure summary: cell-based or functional assay
Starred links: 1 amine or outer side, 2 acyl side, 3 side chain; linkers in the order of their positions; H or OH if unused. Non-standard residues stand in square brackets, D forms with d. Primed or numbered codes have the meaning given here. AEF2PyrimCO = (S)-2-amino-3-(4-(2-(pyrimidine-2-carboxamido)ethoxy)phenyl)propanoic acid, O=C(NCCOc1ccc(C[C@H](N[*:1])C(=O)[*:2])cc1)c1ncccn1; TyrEtNAc = (2S)-3-[4-(2-acetamidoethoxy)phenyl]-2-amino-propanoic acid, CC(=O)NCCOc1ccc(C[C@H](N[*:1])C(=O)[*:2])cc1; 4PyrimAla = (2S)-2-amino-3-pyrimidin-4-yl-propanoic acid, O=C([C@H](Cc1ccncn1)N[*:1])[*:2]; daMeSMe = (2R)-2-amino-3-methoxy-2-methyl-propanoic acid, COC[C@@](C)(N[*:1])C(=O)[*:2]; 4PyrimAla″ = 3-(pyrimidin-4-yl)alanine, O=C([C@H](Cc1ccncn1)N[*:1])[*:2]; dPro(4R-(4-pyridylmethyl)) = O=C(O)[C@H]1C[C@@H](Cc2ccncc2)CN1; Trp(βS-Me,4-F) = C[C@@H](c1c[nH]c2cccc(F)c12)[C@H](N)C(=O)O; Bip(4'-CONH2) = NC(=O)c1ccc(-c2ccc(C[C@H](N)C(=O)O)cc2)cc1; Bip(4'-COOH) = N[C@@H](Cc1ccc(-c2ccc(C(=O)O)cc2)cc1)C(=O)O; Ala(1-bicyclo(1.1.1)pentyl) = N[C@@H](CC12CC(C1)C2)C(=O)O; dPro(4R-Bzl(4-F)) = O=C(O)[C@H]1C[C@@H](Cc2ccc(F)cc2)CN1; dPro(3S-(4-F-Bn)) = O=C(O)[C@@H]1NCC[C@@H]1Cc1ccc(F)cc1; Phe(2-Cl,4-COOH) = N[C@@H](Cc1ccc(C(=O)O)cc1Cl)C(=O)O; Ala(morpholin-4-yl) = N[C@@H](CN1CCOCC1)C(=O)O; Ala(pyrimidin-5-yl) = N[C@@H](Cc1cncnc1)C(=O)O; Phe(4-COOH) = N[C@@H](Cc1ccc(C(=O)O)cc1)C(=O)O; Pro(cis-4-F) = O=C(O)[C@@H]1C[C@H](F)CN1; Ala(4-THP) = N[C@@H](CC1CCOCC1)C(=O)O; d(αMeD) = C[C@@](N)(CC(=O)O)C(=O)O; h4Pal = N[C@@H](CCc1ccncc1)C(=O)O; 4Pal = N[C@@H](Cc1ccncc1)C(=O)O; aThr = C[C@H](O)[C@H](N)C(=O)O; Dab = NCC[C@H](N)C(=O)O; Aib = CC(C)(N)C(=O)O
Here the recorded MRC5 IC50 is given for each entry.
Numbers only here, please. The scale is nM.

So what does the record say about MRC5 IC50 for cyclo(Y[4Pal][Phe(4-COOH)]G[Pro(cis-4-F)][Trp(βS-Me,4-F)][Aib]SW[d(αMeD)][Ala(pyrimidin-5-yl)]Q[Dab]G[dPro(3S-(4-F-Bn))]) (ring closure inferred) [SEQ ID NO 278] ?
0.021

So what does the record say about MRC5 IC50 for cyclo([Bip(4'-COOH)][4Pal][Phe(2-Cl,4-COOH)]G[Pro(cis-4-F)][Trp(βS-Me,4-F)][Aib]SW[d(αMeD)][aThr]Q[Dab]G[dPro(4R-(4-pyridylmethyl))]) (ring closure inferred) [SEQ ID NO 356] ?
0.011

So what does the record say about MRC5 IC50 for cyclo([Bip(4'-CONH2)][4Pal][Phe(4-COOH)]G[Pro(cis-4-F)][Trp(βS-Me,4-F)][Aib]SW[d(αMeD)][Ala(4-THP)]Q[Dab]G[dPro(4R-(4-pyridylmethyl))]) (ring closure inferred; not fully specified (N-terminus); printed as cyclic, Bip4CONH2-4Pal-Phe4COOH-G-Proc4F-SbMeW4F-Aib-S-W-daMeD-AlaTHP4-Q-Dab-G-dProc4CH24Pal) [SEQ ID NO 296] ?
0.013

So what does the record say about MRC5 IC50 for cyclo([AEF2PyrimCO][4Pal][Phe(4-COOH)]G[Pro(cis-4-F)][Trp(βS-Me,4-F)][Aib]SW[Aib][Ala(pyrimidin-5-yl)]Q[Dab]G[dPro(4R-(4-pyridylmethyl))]) (ring closure inferred; not fully specified (N-terminus); printed as cyclic, AEF2PyrimCO-4Pal-Phe4COOH-G-Proc4F-SbMeW4F-Aib-S-W-Aib-PyrimAla-Q-Dab-G-dProc4CH24Pal) [SEQ ID NO 304] ?
0.014

So what does the record say about MRC5 IC50 for cyclo([Bip(4'-COOH)][4Pal][Phe(4-COOH)]G[Pro(cis-4-F)][Trp(βS-Me,4-F)][Aib]EW[Aib][4PyrimAla″]Q[Dab]G[dPro(3S-(4-F-Bn))]) (ring closure inferred; not fully specified (N-terminus); printed as cyclic, Bip4CO2H-4Pal-Phe4COOH-G-Proc4F-SbMeW4F-Aib-E-W-Aib-4PyrimAla-Q-Dab-G-dProc3Bn4F) [SEQ ID NO 312] ?
0.017

So what does the record say about MRC5 IC50 for cyclo([Bip(4'-COOH)][4Pal][Phe(4-COOH)]G[Pro(cis-4-F)][Trp(βS-Me,4-F)][Aib]SW[daMeSMe][aThr]Q[Dab]G[dPro(4R-(4-pyridylmethyl))]) (ring closure inferred) [SEQ ID NO 261] ?
0.017

So what does the record say about MRC5 IC50 for cyclo([Bip(4'-COOH)][4Pal][Phe(4-COOH)]G[Pro(cis-4-F)][Trp(βS-Me,4-F)][Aib]SW[d(αMeD)][4PyrimAla]Q[Dab]G[dPro(4R-Bzl(4-F))]) (ring closure inferred) [SEQ ID NO 332] ?
0.013

So what does the record say about MRC5 IC50 for cyclo([TyrEtNAc][4Pal][Phe(4-COOH)]G[Pro(cis-4-F)][Trp(βS-Me,4-F)][Aib]EW[Aib][h4Pal]Q[Dab]G[dPro(4R-(4-pyridylmethyl))]) (ring closure inferred) [SEQ ID NO 318] ?
0.025

So what does the record say about MRC5 IC50 for cyclo([Bip(4'-COOH)][4Pal][Phe(4-COOH)]G[Pro(cis-4-F)][Trp(βS-Me,4-F)][Aib]SW[d(αMeD)][Ala(morpholin-4-yl)]Q[Dab]G[dPro(4R-Bzl(4-F))]) (ring closure inferred) [SEQ ID NO 319] ?
0.017

So what does the record say about MRC5 IC50 for cyclo([TyrEtNAc][4Pal][Phe(4-COOH)]G[Pro(cis-4-F)][Trp(βS-Me,4-F)][Aib]EW[Aib]HQ[Dab]G[dPro(4R-(4-pyridylmethyl))]) (ring closure inferred) [SEQ ID NO 317] ?
0.015

So what does the record say about MRC5 IC50 for cyclo([Bip(4'-CONH2)][Ala(1-bicyclo(1.1.1)pentyl)][Phe(4-COOH)]G[Pro(cis-4-F)][Trp(βS-Me,4-F)][Aib]SW[d(αMeD)][Ala(pyrimidin-5-yl)]Q[Dab]G[dPro(4R-(4-pyridylmethyl))]) (ring closure inferred) [SEQ ID NO 342] ?
0.022
